molecular target: recombinant GST fusion MALT1 (human MALT1) (Homo sapiens (Human)); experiment: Evaluation of inhibition of protease activity of MALT1 (cleavage of fluorescent peptide substrate Ac-LRSR-AMC); conditions: substrate Ac-LRSR-AMC 20 μmol/L, 30° C. for 80 minutes
Sequence (Q9UDY8 whole entry, the tested form may be a part): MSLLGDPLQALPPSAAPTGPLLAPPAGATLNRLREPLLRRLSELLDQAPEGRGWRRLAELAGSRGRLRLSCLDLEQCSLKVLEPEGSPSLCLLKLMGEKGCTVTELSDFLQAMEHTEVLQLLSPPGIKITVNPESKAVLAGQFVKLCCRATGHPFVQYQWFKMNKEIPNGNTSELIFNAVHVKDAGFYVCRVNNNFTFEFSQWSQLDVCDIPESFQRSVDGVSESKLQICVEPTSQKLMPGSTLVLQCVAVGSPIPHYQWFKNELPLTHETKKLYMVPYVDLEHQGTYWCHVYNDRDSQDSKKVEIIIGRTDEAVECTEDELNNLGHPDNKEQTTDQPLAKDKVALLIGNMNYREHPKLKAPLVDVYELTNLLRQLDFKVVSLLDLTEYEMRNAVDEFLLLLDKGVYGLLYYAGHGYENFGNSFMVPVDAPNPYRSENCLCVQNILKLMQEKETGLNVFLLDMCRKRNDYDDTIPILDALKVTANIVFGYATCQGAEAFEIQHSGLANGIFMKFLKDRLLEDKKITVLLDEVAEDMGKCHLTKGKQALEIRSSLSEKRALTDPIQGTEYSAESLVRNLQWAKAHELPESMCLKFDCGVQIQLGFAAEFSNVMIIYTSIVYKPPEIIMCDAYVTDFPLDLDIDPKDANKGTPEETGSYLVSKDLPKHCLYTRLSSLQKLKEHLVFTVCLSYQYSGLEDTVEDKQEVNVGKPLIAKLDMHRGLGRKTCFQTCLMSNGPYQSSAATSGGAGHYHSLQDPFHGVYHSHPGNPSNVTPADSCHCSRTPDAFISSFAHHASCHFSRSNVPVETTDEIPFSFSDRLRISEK
measurement_type: IC50 (nM)

• N/C(=N\S(=O)(=O)c1ccccc1)NCc1cnc(-c2ccc(C(F)(F)F)cc2)c(-c2ccccc2)c1 = 1070

1. N/C(=N\S(=O)(=O)c1ccccc1)NCc1cc(-c2ccc(Cl)cc2)c(-c2ccc(Cl)cc2)nc1F
2. N/C(=N\S(=O)(=O)c1ccccc1)NCc1cnc(-c2ccc(Cl)cc2)c(-c2ccc(F)cc2)c1
input: // pick larger IC50 from pair: 1 vs 2 Write the label of whichever entry you select.
output: 2
